system: α-isomaltosylglucosaccharide-forming enzyme; test: Influence of metal ions on enzyme activity, Experiment 4-2 (Strain C11); format: biochemical, Bacillus globisporus C11; conditions: 1 mM; summary of Table 6
measurement.kind: Effect on enzyme activity (in words)

A selection of reference data follows.
>  <compound>
[Hg+2] [Hg^2+]

>  <measurement.target>
α-isomaltosylglucosaccharide-forming enzyme

>  <Effect on enzyme activity (in words)>
greatly inhibited

$$$$
>  <compound>
[Ba+2] [Ba^2+]

>  <measurement.target>
α-isomaltosylglucosaccharide-forming enzyme

>  <Effect on enzyme activity (in words)>
inhibited

$$$$
>  <compound>
O=C(O)CN(CCN(CC(=O)O)CC(=O)O)CC(=O)O [EDTA]

>  <measurement.target>
α-isomaltosylglucosaccharide-forming enzyme

>  <Effect on enzyme activity (in words)>
greatly inhibited

$$$$
>  <compound>
[Ca+2] [Ca^2+]

>  <measurement.target>
α-isomaltosylglucosaccharide-forming enzyme

>  <Effect on enzyme activity (in words)>
activated

$$$$

So, [Sr+2] [Sr^2+] ? Its Effect on enzyme activity (in words) was inhibited

Query [Mn+2] [Mn^2+] yields Effect on enzyme activity (in words) of activated

Noted for [Cu+2] [Cu^2+] : its Effect on enzyme activity (in words) reads greatly inhibited

The measurements presented in this section are drawn from patent US20080241904A1.
